Below, each entry is listed alongside its reported abundance fitness.
B1: POU domain, class 4, transcription factor 2, residues 256 to 327; numbered along this chain, Q12837 (parent)
chain: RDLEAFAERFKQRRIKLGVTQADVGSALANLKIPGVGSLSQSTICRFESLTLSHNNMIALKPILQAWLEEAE

Variants of: B1
experiment summary: abundance fitness (aPCA) (normalised: wild type 0, dead -1); higher = more abundant; growth selection in yeast, the domain comes from the species named
condition description: Homo sapiens
// no unit string in output, number only

Solved entries (count: 10):
sequence input	abundance fitness
RDLEAFAERFKQRRIKLGVTQADVGSALANLKIPGVGSLSQSTICRFESLTLSHNNMSALKPILQAWLEEAE [I58S]	-0.017
RDLEAFAERFKQRRIKLGVTQADVGSALANLKIPGVGSLSQSTICRFESLTLSHNNMIALKPILQAWLETAE [E70T]	-0.231
RDLEAFAERFKQRRIKLGVTQADVGSALANLKIPGVGSLSQSTICKFESLTLSHNNMIALKPILQAWLEEAE [R46K]	0.033
RDLEAFAERFKQRRIKLGVTQADVGSALANLYIPGVGSLSQSTICRFESLTLSHNNMIALKPILQAWLEEAE [K32Y]	0.061
RDLEAFAERFKQRRIKLGVTQADVGSALANLKIPGVGSLSQSTICAFESLTLSHNNMIALKPILQAWLEEAE [R46A]	-0.027
RDLEAFAERFKQRRIKLGVTQADVGSALANLKIPGVYSLSQSTICRFESLTLSHNNMIALKPILQAWLEEAE [G37Y]	-0.418
RDLEAFAERFKQRRIKLGVTQADVGSALANLSIPGVGSLSQSTICRFESLTLSHNNMIALKPILQAWLEEAE [K32S]	-0.072
RDLEAFAERFKQRRTKLGVTQADVGSALANLKIPGVGSLSQSTICRFESLTLSHNNMIALKPILQAWLEEAE [I15T]	0.026
RDLEAFAERFKQRRIKLGVTQADVGSALANLKIPGIGSLSQSTICRFESLTLSHNNMIALKPILQAWLEEAE [V36I]	0.166
RDLEAFAERFKQRRIKLGVTQADVGSALANLKIPGVGSLSQSTICRFESLTLSHNNMIALKPNLQAWLEEAE [I63N]	-0.628

Hello, please tell me recorded abundance fitness for this one: RDLEAFAERFKQRRIKLGVTQADVGSALANLKIPGVGSLSQSTICRFESLTLSHNNMIALKSILQAWLEEAE [P62S]
-0.465

Hello, please tell me recorded abundance fitness for this one: RDLEAFAERFKQRRIKLGVTQADVGSALANLKIPGVGSLSQSTICRFESLTLSHNNMIALKPILQAWLEEAH [E72H]
-0.38

Hello, please tell me recorded abundance fitness for this one: RDLEAFAERFKQRRIKLGVTQADVGSALANLKIPGVGSLSQSTICRFESLTLSGNNMIALKPILQAWLEEAE [H54G]
-0.314

Hello, please tell me recorded abundance fitness for this one: RDLEAFAERFKQRRIKLGVTQADVGSALANLKIPGVGSLSQSTICRFESLTLLHNNMIALKPILQAWLEEAE [S53L]
-0.729

Hello, please tell me recorded abundance fitness for this one: RDLEAFAERFKQRRIKLGVTQADVGSALANLKIPGVGSLSQSTICRFESLTLSHNNMIALKPILQAWLLEAE [E69L]
-0.099

Hello, please tell me recorded abundance fitness for this one: RDLEAFAERFKQRRIKLGVTQADVGSALANLKIPGVGSLSQSTICRFESLTLSHNNMIALKPILQARLEEAE [W67R]
-0.755

Hello, please tell me recorded abundance fitness for this one: RDLEAFAERFKQRRIKLGVTQADVGSALANLKIYGVGSLSQSTICRFESLTLSHNNMIALKPILQAWLEEAE [P34Y]
-0.515

Hello, please tell me recorded abundance fitness for this one: RDLEAFAERFKQRRRKLGVTQADVGSALANLKIPGVGSLSQSTICRFESLTLSHNNMIALKPILQAWLEEAE [I15R]
-0.298

Hello, please tell me recorded abundance fitness for this one: RDLEAFAERFKQRRIKLGVTQADVGSALANLKIPGVGSLSQSTICRFESLTLSHNNMIARKPILQAWLEEAE [L60R]
-0.607
